Target: BRD4-BD1 (Homo sapiens, UniProt O60885)
Test: Binding affinity to BRD4-BD1 (bromoKdELECT assay)
Conditions: 11-point 3-fold dilution series
pKd: −log10 of the molar value.
Quick reference: pKd of the listed items.

SMILES_RECORD: Cn1cc(-c2ccccc2Oc2cccc(OCCOC3CCN(c4ncc(C(=O)N[C@H]5C(C)(C)[C@H](Oc6ccc(C#N)c(Cl)c6)C5(C)C)cn4)CC3)c2)c2ccn(C)c2c1=O
pKd: < 5.60
--
SMILES_RECORD: Cn1cc(-c2cc(C(C)(C)O)ccc2Oc2cccc(OCCC3CCN(c4ncc(C(=O)N[C@H]5C(C)(C)[C@H](Oc6ccc(C#N)c(Cl)c6)C5(C)C)cn4)CC3)c2F)c2cc[nH]c2c1=O
pKd: < 5.60
--
SMILES_RECORD: CCS(=O)(=O)c1ccc(Oc2cccc(OCCCC3CCN(c4ncc(C(=O)N[C@H]5C(C)(C)[C@H](Oc6ccc(C#N)c(Cl)c6)C5(C)C)cn4)CC3)c2F)c(-c2cn(C)c(=O)c3[nH]ccc23)c1
pKd: < 5.60

## Input Short answer please: pKd, BRD4-BD1 (Homo sapiens, UniProt O60885), entry CCS(=O)(=O)Nc1ccc(Oc2cccc(OCCOCCOCCOCCOCCOC3CCN(c4ncc(C(=O)N[C@H]5C(C)(C)[C@H](Oc6ccc(C#N)c(Cl)c6)C5(C)C)cn4)CC3)c2)c(-c2cn(C)c(=O)c3[nH]ccc23)c1
## Output 6.30 to 7.30

## Input Short answer please: pKd, BRD4-BD1 (Homo sapiens, UniProt O60885), entry CCS(=O)(=O)Cc1ccc(Oc2cccc(OCCOC3CCN(c4ncc(C(=O)N[C@H]5C(C)(C)[C@H](Oc6ccc(C#N)c(Cl)c6)C5(C)C)cn4)CC3)c2)c(-c2cn(C)c(=O)c3[nH]ccc23)c1
## Output < 5.60
